# tested target: FLT-3 kinase (Homo sapiens, UniProt P36888)
# Sequence (P36888 27-993): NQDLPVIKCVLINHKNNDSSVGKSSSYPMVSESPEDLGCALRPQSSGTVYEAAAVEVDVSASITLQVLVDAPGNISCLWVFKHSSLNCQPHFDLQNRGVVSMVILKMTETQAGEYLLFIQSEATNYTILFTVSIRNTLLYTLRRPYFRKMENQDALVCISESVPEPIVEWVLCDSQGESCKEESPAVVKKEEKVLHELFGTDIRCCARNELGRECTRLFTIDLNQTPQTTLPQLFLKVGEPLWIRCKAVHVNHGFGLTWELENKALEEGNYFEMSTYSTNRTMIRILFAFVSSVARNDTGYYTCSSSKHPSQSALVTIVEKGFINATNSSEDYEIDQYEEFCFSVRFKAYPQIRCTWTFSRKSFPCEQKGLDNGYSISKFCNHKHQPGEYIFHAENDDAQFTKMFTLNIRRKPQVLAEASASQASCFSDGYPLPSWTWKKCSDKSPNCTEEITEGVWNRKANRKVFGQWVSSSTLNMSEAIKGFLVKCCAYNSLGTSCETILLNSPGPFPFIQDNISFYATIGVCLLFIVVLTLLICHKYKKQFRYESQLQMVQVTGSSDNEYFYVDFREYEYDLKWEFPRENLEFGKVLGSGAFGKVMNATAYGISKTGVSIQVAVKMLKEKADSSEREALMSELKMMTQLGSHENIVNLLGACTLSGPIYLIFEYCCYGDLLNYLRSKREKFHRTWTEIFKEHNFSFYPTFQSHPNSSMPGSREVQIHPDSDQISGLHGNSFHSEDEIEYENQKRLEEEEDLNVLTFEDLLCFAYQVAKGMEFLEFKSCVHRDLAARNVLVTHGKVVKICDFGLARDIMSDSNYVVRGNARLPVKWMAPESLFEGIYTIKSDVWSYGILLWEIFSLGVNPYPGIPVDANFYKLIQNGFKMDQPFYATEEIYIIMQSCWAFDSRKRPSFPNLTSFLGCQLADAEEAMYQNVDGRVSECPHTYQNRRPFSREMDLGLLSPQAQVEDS
# test name: Kinase Selectivity Assay (CEREP, HTRF)
# Format: biochemical
# protocol conditions: read-out: % Inhibition at 10 μM Concentration, FLT-3
Each item that follows carries a reported inhibition at 10 µM.

{"compound": "O=C1Nc2ccccc2C1=Cc1ccc2c(/C=C/c3ccccn3)n[nH]c2c1 (mixture of isomers)", "inhibition at 10 µM": "100%"}
{"compound": "O=C1Nc2ccccc2/C1=C\\c1ccc2c(/C=C/c3ccccc3Cl)n[nH]c2c1", "inhibition at 10 µM": "10%"}
{"compound": "COc1ccc2c(c1)C(=Cc1ccc3c(-c4ccc(N5CCN(C)CC5)nc4)n[nH]c3c1)C(=O)N2 (mixture of isomers)", "inhibition at 10 µM": "100%"}
{"compound": "O=C1Nc2ccccc2/C1=C\\c1ccc2[nH]nnc2c1", "inhibition at 10 µM": "93%"}
{"compound": "O=C1Nc2ccccc2/C1=C\\c1ccc2cn[nH]c2c1", "inhibition at 10 µM": "76%"}

----------
Each item that follows carries a reported inhibition at 10 µM.
# tested target: Aurora A (Homo sapiens)
# Construct: purchased Invitrogen PV3612
# Sequence (O14965 whole entry): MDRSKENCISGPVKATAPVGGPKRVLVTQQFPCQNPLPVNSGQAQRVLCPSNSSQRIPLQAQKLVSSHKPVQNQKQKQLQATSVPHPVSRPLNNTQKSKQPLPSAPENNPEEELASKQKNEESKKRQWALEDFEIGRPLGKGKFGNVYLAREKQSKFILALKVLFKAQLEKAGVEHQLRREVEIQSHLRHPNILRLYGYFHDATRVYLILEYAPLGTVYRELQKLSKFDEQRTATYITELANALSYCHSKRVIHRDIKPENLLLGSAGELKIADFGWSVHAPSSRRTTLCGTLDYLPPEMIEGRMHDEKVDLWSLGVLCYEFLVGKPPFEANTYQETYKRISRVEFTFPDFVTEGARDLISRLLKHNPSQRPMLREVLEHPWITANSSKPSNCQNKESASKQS
# test name: Aurora A Inhibition Assay (Z-Lyte)
# Assay type: biochemical
# protocol conditions: 10 μM compound; read-out: Aurora A relative inhibition percentage at a dose of 10 μM

{"molecule": "Cc1ccc2c(c1)/C(=C\\c1ccc3c(/C=C/C(=O)N(C)CCN(C)C)n[nH]c3c1)C(=O)N2 [Example A125]", "tested target": "Aurora A (Homo sapiens)", "inhibition at 10 µM": "> 50%"}
{"molecule": "O=C1Nc2ncccc2/C1=C\\c1ccc2c(/C=C/c3ccncc3)n[nH]c2c1 [Example A101]", "tested target": "Aurora A (Homo sapiens)", "inhibition at 10 µM": "> 50%"}
{"molecule": "O=C1Nc2ccccc2C1=Cc1ccc2c(-c3cncnc3)n[nH]c2c1 (mixture of isomers) [Example A100]", "tested target": "Aurora A (Homo sapiens)", "inhibition at 10 µM": "> 50%"}
{"molecule": "O=C1Nc2ccc(Br)cc2/C1=C\\c1ccc2[nH]nnc2c1 [Example A3]", "tested target": "Aurora A (Homo sapiens)", "inhibition at 10 µM": "< 50%"}
{"molecule": "COc1ccc2c(c1)C(=Cc1ccc3cn[nH]c3c1)C(=O)N2 (mixture of isomers) [Example A83]", "tested target": "Aurora A (Homo sapiens)", "inhibition at 10 µM": "> 50%"}
{"molecule": "CC(=O)Nc1ccc2c(c1)/C(=C\\c1ccc3cn[nH]c3c1)C(=O)N2 [Example A22]", "tested target": "Aurora A (Homo sapiens)", "inhibition at 10 µM": "> 50%"}
{"molecule": "O=C1Nc2ncccc2/C1=C\\c1ccc2cn[nH]c2c1 [Example A67]", "tested target": "Aurora A (Homo sapiens)", "inhibition at 10 µM": "> 50%"}
{"molecule": "COc1ccc2c(c1)C(=Cc1ccc3c(/C=C/c4ccccn4)n[nH]c3c1)C(=O)N2 (mixture of isomers) [Example A87]", "tested target": "Aurora A (Homo sapiens)", "inhibition at 10 µM": "> 50%"}
{"molecule": "O=C1Nc2ccccc2C1=Cc1ccc2c(CCc3ccncc3)n[nH]c2c1 (mixture of isomers) [Example A64]", "tested target": "Aurora A (Homo sapiens)", "inhibition at 10 µM": "> 50%"}
{"molecule": "O=C(O)/C=C/c1n[nH]c2cc(C=C3C(=O)Nc4ncccc43)ccc12 (mixture of isomers) [Example A71]", "tested target": "Aurora A (Homo sapiens)", "inhibition at 10 µM": "> 50%"}
{"molecule": "COc1ccc2c(c1)/C(=C\\c1ccc3c(/C=C/C(=O)N(C)CCN(C)C)n[nH]c3c1)C(=O)N2 [Example A126, 2,2,2-trifluoroacetate]", "tested target": "Aurora A (Homo sapiens)", "inhibition at 10 µM": "> 50%"}
{"molecule": "O=C1Nc2ccc(Br)cc2/C1=C\\c1ccc2[nH]ncc2c1 [Example A31]", "tested target": "Aurora A (Homo sapiens)", "inhibition at 10 µM": "< 50%"}
{"molecule": "O=C1Nc2ccc(Br)cc2/C1=C\\c1ccc2cn[nH]c2c1 [Example A35]", "tested target": "Aurora A (Homo sapiens)", "inhibition at 10 µM": "< 50%"}
{"molecule": "Cc1ncsc1/C=C/c1n[nH]c2cc(/C=C3/C(=O)Nc4ccccc43)ccc12 [Example A103]", "tested target": "Aurora A (Homo sapiens)", "inhibition at 10 µM": "> 50%"}
{"molecule": "O=C1Nc2ccccc2/C1=C\\c1ccc2[nH]nnc2c1 [Example A1]", "tested target": "Aurora A (Homo sapiens)", "inhibition at 10 µM": "< 50%"}
{"molecule": "O=C1Nc2ccc(F)cc2/C1=C/c1ccc2cn[nH]c2c1 [Example A32]", "tested target": "Aurora A (Homo sapiens)", "inhibition at 10 µM": "> 50%"}
{"molecule": "O=C1Nc2ccccc2/C1=C\\c1cc(-c2ccncc2)c2cn[nH]c2c1 [Example A54a]", "tested target": "Aurora A (Homo sapiens)", "inhibition at 10 µM": "> 50%"}
